Read-out record for AT2 Receptor (AT2R) (Homo sapiens (Human)): IC50
# number only, unit nM dropped from output

CCN(Cc1cccs1)C(=O)N1[C@H]2CC[C@@H]1[C@@H](C(=O)O)N(C(=O)N(c1ccccc1)c1ccccc1)C2: 18.4
CCN(Cc1ccsc1)C(=O)N1[C@H]2CC[C@@H]1[C@@H](C(=O)O)N(C(=O)N(c1ccccc1)c1ccccc1)C2: 10.4

We next turn to a different compound, shown below.
Entry O=C(O)[C@@H]1[C@H]2CC[C@@H](CN1C(=O)C(c1ccccc1)c1ccccc1)N2C(=O)CCc1ccccc1 has what IC50? 11.7

###

Read-out record for AT1 Receptor (AT1R) (Homo sapiens (Human), UniProt P30556): pIC50
pIC50: −log10 of the molar value.

Example entries begin here.
O=C(O)[C@@H]1[C@H]2CC[C@@H](CN1C(=O)N(c1ccccc1)c1ccccc1)N2C(=O)C(c1ccccc1)c1ccccc1: < 5.00
Cc1ccc(CN(C)C(=O)N2[C@H]3CC[C@@H]2[C@@H](C(=O)O)N(C(=O)N(c2ccccc2)c2ccccc2)C3)cc1: < 5.00

We next turn to a different compound, shown below.
Entry O=C(O)[C@@H]1[C@H]2CC[C@@H](CN1C(=O)C(c1ccccc1)c1ccccc1)N2C(=O)Oc1ccccc1 has what pIC50? < 5.00

###

Read-out record for AT2 Receptor (AT2R) (Homo sapiens (Human), UniProt P50052): pIC50
Note on pIC50: it is the negative log10 of concentration, concentration in mol/L.

Example entries begin here.
C=C(C)c1ccc(CN(C)C(=O)N2[C@H]3CC[C@@H]2[C@@H](C(=O)O)N(C(=O)N(c2ccccc2)c2ccccc2)C3)cc1: 7.58
O=C(O)[C@@H]1[C@H]2CC[C@@H](CN1C(=O)N(c1ccccc1)c1ccccc1)N2C(=O)OCc1ccccc1: 7.26

We next turn to a different molecule, shown below.
API: value(readout=pIC50, system=AT2 Receptor (AT2R) (Homo sapiens (Human), UniProt P50052)) for record CN(Cc1cccnc1)C(=O)N1[C@H]2CC[C@@H]1[C@@H](C(=O)O)N(C(=O)N(c1ccccc1)c1ccccc1)C2 7.42

###

target under test: AT2 Receptor (AT2R) (Homo sapiens (Human), UniProt P50052)
Sequence (P50052 whole entry): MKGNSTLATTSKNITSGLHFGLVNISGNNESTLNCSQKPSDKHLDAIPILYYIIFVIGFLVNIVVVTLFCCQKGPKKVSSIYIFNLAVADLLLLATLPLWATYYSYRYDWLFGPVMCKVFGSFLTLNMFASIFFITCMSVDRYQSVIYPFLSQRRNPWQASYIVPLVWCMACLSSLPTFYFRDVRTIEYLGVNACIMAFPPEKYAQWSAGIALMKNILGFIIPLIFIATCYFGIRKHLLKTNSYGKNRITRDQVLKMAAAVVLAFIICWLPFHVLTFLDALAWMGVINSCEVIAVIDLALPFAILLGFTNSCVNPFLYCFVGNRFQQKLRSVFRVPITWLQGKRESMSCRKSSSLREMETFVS
assay protocol: Measurement of inhibitory activity on AT2 receptor (Tag-lite HTRF, Tb-labeled AT2R cells, angiotensin receptor red agonist)
Assay type: binding
stated conditions: 1 h room temperature
readout name: IC50 (nM)
# number only, unit nM dropped from output

Cc1ccc(CN(C)C(=O)N2[C@H]3CC[C@@H]2[C@@H](C(=O)O)N(C(=O)N(c2ccccc2)c2ccccc2)C3)cc1: 4.04
O=C(O)[C@@H]1[C@H]2CC[C@@H](CN1C(=O)N(c1ccccc1)c1ccccc1)N2c1nccc(-c2ccccc2)n1: 49.5
O=C(O)[C@@H]1[C@H]2CC[C@@H](CN1C(=O)N(c1ccccc1)c1ccccc1)N2C(=O)N1CCN(c2ccccc2)CC1: 482
CCN(Cc1ccc(Cl)s1)C(=O)N1[C@H]2CC[C@@H]1[C@@H](C(=O)O)N(C(=O)N(c1ccccc1)c1ccccc1)C2: 20.3
CN(Cc1ccsc1)C(=O)N1[C@H]2CC[C@@H]1[C@@H](C(=O)O)N(C(=O)C(c1ccccc1)c1ccccc1)C2: 3.75

We next turn to a different molecule, shown below.
Entry CCc1ccc(CN(C)C(=O)N2[C@H]3CC[C@@H]2[C@@H](C(=O)O)N(C(=O)N(c2ccccc2)c2ccccc2)C3)cc1 has what IC50? 4.35

###

target under test: AT2 Receptor (AT2R) (Homo sapiens (Human), UniProt P50052)
readout name: IC50 (nM)
# number only, unit nM dropped from output

CN(Cc1csc2ccccc12)C(=O)N1[C@H]2CC[C@@H]1[C@@H](C(=O)O)N(C(=O)C(c1ccccc1)c1ccccc1)C2: 24.2
CC(CC(=O)N1[C@H]2CC[C@@H]1[C@@H](C(=O)O)N(C(=O)N(c1ccccc1)c1ccccc1)C2)c1ccccc1 (stereo partly drawn): 23.8
CC(c1ccccc1)N(C)C(=O)N1[C@H]2CC[C@@H]1[C@@H](C(=O)O)N(C(=O)N(c1ccccc1)c1ccccc1)C2 (stereo partly drawn): 11.7
CN(C)[C@@H](Cc1ccccc1)C(=O)N1[C@H]2CC[C@@H]1[C@@H](C(=O)O)N(C(=O)N(c1ccccc1)c1ccccc1)C2: 68.2
O=C(O)[C@@H]1[C@H]2CC[C@@H](CN1C(=O)N(c1ccccc1)c1ccccc1)N2C(=O)N(Cc1ccccc1)c1ccccc1: 322

Entry CN(Cc1ccccc1)C(=O)N1[C@H]2CC[C@@H]1[C@@H](C(=O)O)N(C(=O)N(c1ccccc1)c1ccccc1)C2 has what IC50? 21.5

###

target under test: AT2 Receptor (AT2R) (Homo sapiens (Human), UniProt P50052)
assay protocol: Measurement of inhibitory activity on AT2 receptor (Tag-lite HTRF, Tb-labeled AT2R cells, angiotensin receptor red agonist)
Assay type: binding
stated conditions: 1 h room temperature
Procedure: Measurement of Inhibitory Activity on AT1 Receptor ([…])/AT2 Receptor (AT2R) Through the following steps, the inhibitory activity of the compound on AT1R/AT2R (IC50 value) was determined: 1) An appropriate amount of 1×TLB (Tag-lite Buffer) was prepared and well mixed for use. 2) The compound was diluted by 10 times with ddH2O or DMSO. The compound was then dilute to 4 times of the working concentration with 1×TLB and mixed well for use. […]
This listing pairs compounds with measured pIC50.
Note on pIC50: it is the negative log10 of concentration, concentration in mol/L.

Entry O=C(O)[C@@H]1[C@H]2CC[C@@H](CN1C(=O)C(c1ccccc1)c1ccccc1)N2C(=O)N1c2ccccc2C=Cc2ccccc21 has what pIC50? 6.97

What would you report for O=C(O)[C@@H]1[C@H]2CC[C@@H](CN1C(=O)Oc1ccccc1)N2C(=O)N(c1ccccc1)c1ccccc1 ? 6.77

What would you report for CC(C)c1ccc(CN(C)C(=O)N2[C@H]3CC[C@@H]2[C@@H](C(=O)O)N(C(=O)N(c2ccccc2)c2ccccc2)C3)cc1 ? 7.95

What would you report for CN(Cc1ccccc1)C(=O)N1C[C@@H]2CC[C@H]([C@H]1C(=O)O)N2C(=O)C(c1ccccc1)c1ccccc1 ? 6.98

What would you report for O=C(O)[C@@H]1[C@H]2CC[C@@H](CN1C(=O)C(c1ccccc1)c1ccccc1)N2C(=O)OCc1c(F)cccc1F ? 7.68

What would you report for C/C(=C\c1ccccc1)C(=O)N1[C@H]2CC[C@@H]1[C@@H](C(=O)O)N(C(=O)C(c1ccccc1)c1ccccc1)C2 ? 6.99

What would you report for O=C(O)[C@@H]1[C@H]2CC[C@@H](CN1C(=O)N(c1ccccc1)c1ccccc1)N2C(=O)N(Cc1ccccc1)Cc1ccccc1 ? 6.61

###

Read-out record for AT2 Receptor (AT2R) (Homo sapiens (Human), UniProt P50052): pIC50
Note on pIC50: it is the negative log10 of concentration, concentration in mol/L.

Example entries begin here.
CN(Cc1ccccc1)C(=O)N1[C@H]2CC[C@@H]1[C@@H](C(=O)O)N(C(=O)C(c1ccccc1)c1ccccc1)C2: 8.40
O=C(O)[C@@H]1[C@H]2CC[C@@H](CN1C(=O)C(c1ccccc1)c1ccccc1)N2C(=O)C(c1ccccc1)c1ccccc1 [Compound C3]: 7.86
CC(C)N(Cc1ccccc1)C(=O)N1[C@H]2CC[C@@H]1[C@@H](C(=O)O)N(C(=O)N(c1ccccc1)c1ccccc1)C2: 7.32
O=C(O)[C@@H]1[C@@H]2CC[C@@H](CC2OCc2cccc(Cl)c2)N1C(=O)C(c1ccccc1)c1ccccc1 (stereo partly drawn): 6.12
O=C(O)[C@@H]1[C@H]2CC[C@@H](CN1C(=O)C(c1ccccc1)c1ccccc1)N2C(=O)Oc1ccccc1: 7.61

We next turn to a different compound, shown below.
Entry CN(Cc1cc2ccccc2s1)C(=O)N1[C@H]2CC[C@@H]1[C@@H](C(=O)O)N(C(=O)N(c1ccccc1)c1ccccc1)C2 has what pIC50? 7.84

###

Read-out record for AT2 Receptor (AT2R) (Homo sapiens (Human)): IC50

CN(Cc1ccccn1)C(=O)N1[C@H]2CC[C@@H]1[C@@H](C(=O)O)N(C(=O)N(c1ccccc1)c1ccccc1)C2 [Compound C126]: 78 nM
O=C(O)[C@H]1[C@@H]2CC[C@H](CN1C(=O)N1c3ccccc3C=Cc3ccccc31)N2C(=O)C(c1ccccc1)c1ccccc1 [Compound C71]: 50.4 nM
O=C(O)[C@@H]1[C@H]2CC[C@@H](CN1C(=O)N(c1ccccc1)c1ccccc1)N2C(=O)N1CCCC1c1ccc(Cl)cc1 (stereo in doubt) [Compound C144]: 21.6 nM
CN(Cc1ccccc1F)C(=O)N1[C@H]2CC[C@@H]1[C@@H](C(=O)O)N(C(=O)N(c1ccccc1)c1ccccc1)C2 [Compound C114]: 26.4 nM
CC(Cc1ccccc1)C(=O)N1[C@H]2CC[C@@H]1[C@@H](C(=O)O)N(C(=O)C(c1ccccc1)c1ccccc1)C2 (stereo partly shown) [Compound C230]: 50.2 nM

Entry CCN(Cc1ccsc1)C(=O)N1[C@H]2CC[C@@H]1[C@@H](C(=O)O)N(C(=O)C(c1ccccc1)c1ccccc1)C2 [Compound C188] has what IC50? 7.11 nM
